viability, T/C values, listed per item
- Test system: 817829-284-R-J1-PDC multi-cell spheroid viability
- ASSAY EXPLANATION: Anticancer human tumor 817829-284-R-J1-PDC patient-derived colon adenocarcinoma cell line growth inhibition [PI3K]
- MEASUREMENT CONTEXT: second compound 0.1 µM; first compound 0.316 µM; stronger effect = lower value
MEASURE: viability, T/C (%)

- CC1(C)CCC(Nc2ncc(C(F)(F)F)c(-c3c[nH]c4c(P(C)(C)=O)c(C#N)ccc34)n2)CN1 (stereo not given) + Cc1nc(NC(=O)N2CCCC2C(N)=O)sc1-c1ccnc(C(C)(C)C(F)(F)F)c1: 32.2
- C[C@@H](NC(=O)c1ncnc(N)c1Cl)c1ncc(C(=O)Nc2cc(C(F)(F)F)c(Cl)cn2)s1 + Cc1nc(NC(=O)N2CCCC2C(N)=O)sc1-c1ccnc(C(C)(C)C(F)(F)F)c1: 81.1
- CC(Cn1ccc(-c2ccc(C#N)c(Cl)c2)n1)NC(=O)c1cc(C(C)O)[nH]n1 (stereo not given) + COc1c(OCCCN2CCOCC2)ccc2c3n(c(=NC(=O)c4cnc(N)nc4)nc12)CCN3: 30.2
- CC(Cn1ccc(-c2ccc(C#N)c(Cl)c2)n1)NC(=O)c1cc(C(C)O)[nH]n1 (stereo not given) + CC(Nc1ccc2c(c1)OCCn1cc(N3C(=O)OCC3C(F)F)nc1-2)C(N)=O: 62.3
- CNC(=O)c1ccc(N2C(=S)N(c3ccc(C#N)c(C(F)(F)F)c3)C(=O)C2(C)C)cc1F + Cc1nc(NC(=O)N2CCCC2C(N)=O)sc1-c1ccnc(C(C)(C)C(F)(F)F)c1: 87.4

###

- Test system: 817829-284-R-J1-PDC multi-cell spheroid viability
- ASSAY EXPLANATION: Anticancer human tumor 817829-284-R-J1-PDC cell line growth inhibition [PI3K];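 note: spheroids exposed to agents for seven days before readout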
- MEASUREMENT CONTEXT: curve of first compound; second compound 0.0316 µM
log10(IC50) values, listed per item
MEASURE: log10(IC50) (log10 of the value in µM)

- CC(C)n1nc(-c2ccc3oc(N)nc3c2)c2c(N)ncnc21 + COc1c(OCCCN2CCOCC2)ccc2c3n(c(=NC(=O)c4cnc(N)nc4)nc12)CCN3: -2.28
- CCN1CCN(Cc2ccc(Nc3ncc(F)c(-c4cc(F)c5nc(C)n(C(C)C)c5c4)n3)nc2)CC1 + Cc1nc(NC(=O)N2CCCC2C(N)=O)sc1-c1ccnc(C(C)(C)C(F)(F)F)c1: -0.20
- CC1(C)CCC(CN2CCN(c3ccc(C(=O)NS(=O)(=O)c4ccc(NCC5CCOCC5)c([N+](=O)[O-])c4)c(Oc4cnc5[nH]ccc5c4)c3)CC2)=C(c2ccc(Cl)cc2)C1 + CC(Nc1ccc2c(c1)OCCn1cc(N3C(=O)OCC3C(F)F)nc1-2)C(N)=O: 0.43
- Cn1ncc(Cl)c1-c1cc(C(=O)NC(CN)Cc2cccc(F)c2)sc1Cl (stereo not given) + COc1c(OCCCN2CCOCC2)ccc2c3n(c(=NC(=O)c4cnc(N)nc4)nc12)CCN3: -1.34
- CC(=O)c1c(C)c2cnc(Nc3ccc(N4CCNCC4)cn3)nc2n(C2CCCC2)c1=O + CC(Nc1ccc2c(c1)OCCn1cc(N3C(=O)OCC3C(F)F)nc1-2)C(N)=O: -1.47
- CC(=O)c1c(C)c2cnc(Nc3ccc(N4CCNCC4)cn3)nc2n(C2CCCC2)c1=O + Cc1nc(NC(=O)N2CCCC2C(N)=O)sc1-c1ccnc(C(C)(C)C(F)(F)F)c1: -1.57
- CC1(C)CCC(CN2CCN(c3ccc(C(=O)NS(=O)(=O)c4ccc(NCC5CCOCC5)c([N+](=O)[O-])c4)c(Oc4cnc5[nH]ccc5c4)c3)CC2)=C(c2ccc(Cl)cc2)C1 + Cc1nc(NC(=O)N2CCCC2C(N)=O)sc1-c1ccnc(C(C)(C)C(F)(F)F)c1: 0.70

###

- System: 817829-284-R-J1-PDC multi-cell spheroid viability
- ASSAY EXPLANATION: Anticancer human tumor 817829-284-R-J1-PDC cell line growth inhibition [PI3K];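 note: spheroids exposed to agents for seven days before readout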;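 for viability, T/C: percent of vehicle DMSO control viability which is 100%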
- MEASUREMENT CONTEXT: second compound 10 µM; first compound 1 µM; stronger effect = lower value
MEASURE: viability, T/C (%)

• CC(C)NCC(C(=O)N1CCN(c2ncnc3c2C(C)CC3O)CC1)c1ccc(Cl)cc1 (stereo not given) + Cc1nc(NC(=O)N2CCCC2C(N)=O)sc1-c1ccnc(C(C)(C)C(F)(F)F)c1 = 24.6
• CC1(C)CCC(Nc2ncc(C(F)(F)F)c(-c3c[nH]c4c(P(C)(C)=O)c(C#N)ccc34)n2)CN1 (stereo not given) + Cc1nc(NC(=O)N2CCCC2C(N)=O)sc1-c1ccnc(C(C)(C)C(F)(F)F)c1 = 21.3
• C[C@@H](NC(=O)c1ncnc(N)c1Cl)c1ncc(C(=O)Nc2cc(C(F)(F)F)c(Cl)cn2)s1 + Cc1nc(NC(=O)N2CCCC2C(N)=O)sc1-c1ccnc(C(C)(C)C(F)(F)F)c1 = 54.3
• CC1(C)CCC(CN2CCN(c3ccc(C(=O)NS(=O)(=O)c4ccc(NCC5CCOCC5)c([N+](=O)[O-])c4)c(Oc4cnc5[nH]ccc5c4)c3)CC2)=C(c2ccc(Cl)cc2)C1 + Cc1nc(NC(=O)N2CCCC2C(N)=O)sc1-c1ccnc(C(C)(C)C(F)(F)F)c1 = 78.8
• CC(Cn1ccc(-c2ccc(C#N)c(Cl)c2)n1)NC(=O)c1cc(C(C)O)[nH]n1 (stereo not given) + CC(Nc1ncnc2nc[nH]c12)c1cc2cccc(Cl)c2c(=O)n1-c1ccccc1 = 51

###

- System: 817829-284-R-J1-PDC multi-cell spheroid viability
- ASSAY EXPLANATION: Anticancer human tumor 817829-284-R-J1-PDC cell line growth inhibition [PI3K];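 note: spheroids exposed to agents for seven days before readout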
- MEASUREMENT CONTEXT: curve of first compound; second compound 10 µM
MEASURE: IC50

- Cn1cnc2c(F)c(Nc3ccc(Br)cc3Cl)c(C(=O)NOCCO)cc21 + Cc1nc(NC(=O)N2CCCC2C(N)=O)sc1-c1ccnc(C(C)(C)C(F)(F)F)c1: 293 nM
- CC(Cn1ccc(-c2ccc(C#N)c(Cl)c2)n1)NC(=O)c1cc(C(C)O)[nH]n1 (stereo unspecified) + CC(Nc1ncnc2nc[nH]c12)c1cc2cccc(Cl)c2c(=O)n1-c1ccccc1: > 10000 nM
- CCCS(=O)(=O)Nc1ccc(F)c(C(=O)c2c[nH]c3ncc(-c4ccc(Cl)cc4)cc23)c1F + CC(Nc1ncnc2nc[nH]c12)c1cc2cccc(Cl)c2c(=O)n1-c1ccccc1: 1790 nM
- CC(C)NCC(C(=O)N1CCN(c2ncnc3c2C(C)CC3O)CC1)c1ccc(Cl)cc1 (stereo unspecified) + Cc1nc(NC(=O)N2CCCC2C(N)=O)sc1-c1ccnc(C(C)(C)C(F)(F)F)c1: 38.8 nM
- CNC(=O)c1ccc(N2C(=S)N(c3ccc(C#N)c(C(F)(F)F)c3)C(=O)C2(C)C)cc1F + Cc1nc(NC(=O)N2CCCC2C(N)=O)sc1-c1ccnc(C(C)(C)C(F)(F)F)c1: 1150 nM
- CCN1CCN(Cc2ccc(Nc3ncc(F)c(-c4cc(F)c5nc(C)n(C(C)C)c5c4)n3)nc2)CC1 + Cc1nc(NC(=O)N2CCCC2C(N)=O)sc1-c1ccnc(C(C)(C)C(F)(F)F)c1: 6.96 nM
- CC1(C)CCC(CN2CCN(c3ccc(C(=O)NS(=O)(=O)c4ccc(NCC5CCOCC5)c([N+](=O)[O-])c4)c(Oc4cnc5[nH]ccc5c4)c3)CC2)=C(c2ccc(Cl)cc2)C1 + Cc1nc(NC(=O)N2CCCC2C(N)=O)sc1-c1ccnc(C(C)(C)C(F)(F)F)c1: 2430 nM
- CC(C)n1nc(-c2ccc3oc(N)nc3c2)c2c(N)ncnc21 + CC(Nc1ncnc2nc[nH]c12)c1cc2cccc(Cl)c2c(=O)n1-c1ccccc1: 10.9 nM
- CC(Cn1ccc(-c2ccc(C#N)c(Cl)c2)n1)NC(=O)c1cc(C(C)O)[nH]n1 (stereo unspecified) + Cc1nc(NC(=O)N2CCCC2C(N)=O)sc1-c1ccnc(C(C)(C)C(F)(F)F)c1: < 31.6 nM
- CC(=O)c1c(C)c2cnc(Nc3ccc(N4CCNCC4)cn3)nc2n(C2CCCC2)c1=O + Cc1nc(NC(=O)N2CCCC2C(N)=O)sc1-c1ccnc(C(C)(C)C(F)(F)F)c1: < 0.316 nM
- CC1(C)CCC(Nc2ncc(C(F)(F)F)c(-c3c[nH]c4c(P(C)(C)=O)c(C#N)ccc34)n2)CN1 (stereo unspecified) + Cc1nc(NC(=O)N2CCCC2C(N)=O)sc1-c1ccnc(C(C)(C)C(F)(F)F)c1: < 31.6 nM
- CC(=O)c1c(C)c2cnc(Nc3ccc(N4CCNCC4)cn3)nc2n(C2CCCC2)c1=O + CC(Nc1ncnc2nc[nH]c12)c1cc2cccc(Cl)c2c(=O)n1-c1ccccc1: 33.4 nM
- Cn1nccc1Nc1nccc(-c2ccn(C(CO)c3ccc(Cl)c(F)c3)c(=O)c2)n1 (stereo unspecified) + Cc1nc(NC(=O)N2CCCC2C(N)=O)sc1-c1ccnc(C(C)(C)C(F)(F)F)c1: 4810 nM
- C=CC(=O)N1CCN(c2nc(=O)n(-c3c(C)ccnc3C(C)C)c3nc(-c4c(O)cccc4F)c(F)cc23)C(C)C1 (stereo unspecified) + Cc1nc(NC(=O)N2CCCC2C(N)=O)sc1-c1ccnc(C(C)(C)C(F)(F)F)c1: 56.5 nM
- C[C@@H](NC(=O)c1ncnc(N)c1Cl)c1ncc(C(=O)Nc2cc(C(F)(F)F)c(Cl)cn2)s1 + Cc1nc(NC(=O)N2CCCC2C(N)=O)sc1-c1ccnc(C(C)(C)C(F)(F)F)c1: < 31.6 nM
- Cn1ncnc1[C@H]1c2n[nH]c(=O)c3cc(F)cc(c23)N[C@@H]1c1ccc(F)cc1 + Cc1nc(NC(=O)N2CCCC2C(N)=O)sc1-c1ccnc(C(C)(C)C(F)(F)F)c1: 11.9 nM

Provenance of the data: PubChem BioAssay AID1963969
